// values below are reported melting point

For orientation, consider the following solved cases.
COC1=C(OC)C(=O)C(CCCCCCCCCCOC(C)=O)=C(C)C1=O ... 38 °C
Oc1c(CN2CCCC2)cc(Nc2ccnc3ccccc23)cc1CN1CCCC1 ... 67 °C
C#CCn1c(=O)n(CCN2CCN(c3ccccc3OC)CC2)c(=O)c2cscc21 ... 142 to 143 °C
CCn1nc(-c2nc(C#N)c(NCc3ccc(OC)cc3)nc2-c2ccccc2)ccc1=O ... 166 to 168 °C

# input Give recorded melting point. `CON=C(c1ccccc1COc1cc(C)ccc1C)C1OCCO1`
# output 136 to 137 °C

# input Quote melting point reported for OC1CSC(Oc2ccc(-c3ccc(F)nc3)nc2F)C(O)C1O (stereo not given) please.
# output 141 to 144 °C

# input Answer with the recorded melting point of `CCOc1nc(C2CC2)nc(OCC)c1C=O` only.
# output 86 to 87 °C

# input Determine from records and report melting point for `CCN(CC)C(=O)n1cc(C(F)F)c(S(=O)(=O)c2cc(Cl)cc(Cl)c2)n1`
# output 112 to 113 °C

# input Supply recorded melting point for Nc1cccc(C(CC2=NCCN2)c2ccccn2)c1 (stereo not given) here.
# output 154 to 155 °C

# input State, in one line, measured melting point of `CN(CC(N)=O)C(=O)CCl`
# output 85 to 86 °C

# input Read the entry `Cc1ccc(S(=O)(=O)O[C@@H]2CCCN(S(=O)(=O)c3ccc(C)cc3)C2)cc1` and write its reported melting point.
# output 140 to 147 °C

# input State, in one line, measured melting point of N#Cc1nn(-c2c(Cl)cc(C(F)(F)F)cc2Cl)cc1C1C=CCC1 (stereo not given)
# output 76 to 80 °C

# input Supply reported melting point belonging to this molecule: `CC(C)(CCCN)C(Cc1c[nH]c([N+](=O)[O-])n1)=NO`
# output 136 to 137 °C

# input Quote melting point reported for `c1ccc(-c2cc3cnccc3[nH]2)cc1` please.
# output 276 to 278 °C

* * *

Measurement Type: melting point

COc1ccc(C2(O)CC3CCC(C2)N3C)cc1 (stereo not drawn) ... 162 °C
O=[N+]([O-])C=C(NCc1cccnc1)N1CCCCC1 ... 106 to 108 °C
C=Cc1cc(NC(=O)N2CCN(c3cc(F)cc(F)c3)CC2)c(OC)nc1C ... 160 to 161 °C
O=C(NC1CC1)c1cc(Nc2nc(N3CCCC3c3ccccn3)nc3ccoc23)[nH]n1 (stereo not drawn) ... 238 °C
CC(=O)NCc1ccc(CN2CCN(c3ccc(F)cc3[N+](=O)[O-])CC2)cc1 ... 94.5 to 96 °C
N#Cc1cc(C(F)(F)F)[nH]c1-c1ccc(C=O)o1 ... 224 to 225 °C
CC(C)(C)c1cc(C(=O)NCc2ccc(N)cc2)cc(C(C)(C)C)c1O ... 188 to 189 °C
CN(C)CC(=O)N1c2ccccc2NC(=O)c2cncnc21 ... 208 to 210 °C

# input Please report the measured melting point for `O=c1c2c(oc3ncccc13)-c1ccccc1CCC2`
# output 186 to 190 °C

# input Respond only with melting point recorded for `COc1ccc2oc(S(=O)(=O)c3ccc(=O)[nH]n3)cc2c1`
# output 222 to 223 °C

# input Supply recorded melting point for `O=C(O)c1cnn(CC(F)(F)F)c1` here.
# output 160 to 162 °C

# input Provide one value: measured melting point of `O[C@H](CCc1cccnc1)COc1ccc(Br)cc1`
# output 65 to 66 °C

# input Supply melting point value. Item: `CCCCCCCCc1c(C)nc2cc(C)nn2c1N`
# output 169 °C

Origin of the recorded values: a melting point compilation (Tetko et al.; mined from patent text by program, amines drawn as free bases though some values may be those of a salt)
